- TARGET OR SYSTEM: SARS-CoV Mac1 (Severe acute respiratory syndrome coronavirus, UniProt P0C6X7)
- Type: binding
- DETAILS: read-out: AS assay IC50 SARS-CoV
REPORTED METRIC: pIC50
Numbers only, as −log10 of the molar value.

Can you share its pIC50? I mean this molecule: Nc1ncnc2c1ncn2[C@@H]1O[C@H](COP(=O)(O)OP(=O)(O)OC[C@H]2OC(O)[C@H](O)[C@@H]2O)[C@@H](O)[C@H]1O (stereo partly shown) [ADP-ribose]
6.62
